Target: Cytochrome P450 1A2 (Homo sapiens);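 further: PubChem cytochrome P450 panel assay, CYP1A2 panel member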
Sequence (P05177 whole entry): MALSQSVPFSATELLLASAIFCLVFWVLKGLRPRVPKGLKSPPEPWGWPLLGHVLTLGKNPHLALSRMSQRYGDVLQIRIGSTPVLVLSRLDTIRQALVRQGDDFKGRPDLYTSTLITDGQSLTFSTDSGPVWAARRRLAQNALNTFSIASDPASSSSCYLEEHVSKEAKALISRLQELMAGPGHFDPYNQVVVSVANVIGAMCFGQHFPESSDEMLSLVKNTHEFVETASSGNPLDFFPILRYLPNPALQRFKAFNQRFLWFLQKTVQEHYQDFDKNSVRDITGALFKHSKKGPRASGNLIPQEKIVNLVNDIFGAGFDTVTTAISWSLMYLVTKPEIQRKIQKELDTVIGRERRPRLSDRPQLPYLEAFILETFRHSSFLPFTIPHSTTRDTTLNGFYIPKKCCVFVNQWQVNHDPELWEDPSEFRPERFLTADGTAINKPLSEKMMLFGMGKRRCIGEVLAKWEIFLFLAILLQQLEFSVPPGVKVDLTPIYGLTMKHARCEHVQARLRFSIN
PROPERTY_MEASURED: AC50

Past entries and their recorded results:
[
  {
    "COMPOUND": "C[C@@]12CC[C@H]3[C@@H](CC[C@@H]4C[C@H](O)CC[C@]43C)[C@H]1CC[C@H]2O",
    "AC50": "15.8 µM (inconclusive)"
  },
  {
    "COMPOUND": "CSc1cccc(NC(=O)OC2CCCCCCCCCCC2)c1",
    "AC50": "5.01 µM (inconclusive)"
  },
  {
    "COMPOUND": "CCN(CC)CCNC(=O)c1cc(Cl)c(N)cc1OC [METOCLOPRAMIDE]",
    "AC50": "15.8 µM (inconclusive)"
  },
  {
    "COMPOUND": "O=S(=O)(O)c1cc(/N=[N+](\\[O-])c2cc(S(=O)(=O)O)c3ccccc3c2)cc2ccccc12",
    "AC50": "1.26 µM (inconclusive)"
  },
  {
    "COMPOUND": "COc1ccccc1NC(=O)Cn1nnc(-c2ccccc2NC(=O)c2cc3ccccc3oc2=O)n1",
    "AC50": "15.8 µM (inconclusive)"
  },
  {
    "COMPOUND": "O=C(Nc1ccccc1)N1CC2(CCN(C(=O)c3ccncc3)CC2)C1",
    "AC50": "10 µM (inconclusive)"
  }
]

# map each compound to its AC50
1. Cc1cccc(NC(=O)CSc2nc(COc3ccccc3)nc3ccccc23)c1C
2. CCc1cc2cc(C)c(C)cc2nc1SCC(=O)NNC(=O)c1ccco1
3. c1ccc(C(c2ccccc2)N2CC3(CCNCC3)C2)cc1
4. O=C1CC(NCCC2=CCCCC2)C(=O)N1c1cccc(Cl)c1Cl (stereo not given)
5. O=c1c(-c2ccc(Cl)cc2)nc2cncnc2n1Cc1ccccc1Cl
6. CC1CCC(NC(=O)c2ccc(CS(=O)(=O)Cc3ccccc3F)o2)CC1 (stereo not given)
7. CCOc1ncnc2c1oc1nc(CC(C)C)c3c(c12)CC(C)(C)OC3

OUT:
1: 12.6 µM (inconclusive); 2: 0.794 µM (inconclusive); 3: 15.8 µM (inconclusive); 4: 15.8 µM (inconclusive); 5: 1.26 µM (inconclusive); 6: 0.251 µM (inconclusive); 7: 22.4 µM (inconclusive)
